// data source = patent US4895835A

- Test system: E. coli (JC-2)
- testDescription: Phylactic effect, E. coli infection
- Format: in vivo
- conditionNotes: ICR mouse; compound 500 μg/ml, 0.2 ml i.p. one day before infection i.p. 1×10^7 /mouse; after 7 days of infection
Each record here notes measured Survival rate, E. coli.
Answer in %, number only, no unit symbol.

In the examples that follow, each entry is paired with its recorded Survival rate, E. coli.
[[record]]
molecule = "CCCCCCCCCCCC(=O)O[C@H](CCCCCCCCCCC)CC(=O)OC[C@H]1O[C@@H](S)[C@H](NC(C)=O)[C@@H](O[C@H](C)C(=O)N[C@@H](C)C(=O)N[C@H](CCC(=O)OC)C(N)=O)[C@@H]1O [Example 7]"
testtarget = "E. coli (JC-2)"
parametermeasured = "Survival rate, E. coli"
uom = "%"
valuemeasured = 30

[[record]]
molecule = "CCCCCCCCCCCC(=O)O[C@H](CCCCCCCCCCC)CC(=O)OC[C@H]1OC[C@H](NC(C)=O)[C@@H](O[C@H](C)C(=O)N[C@@H](C)C(=O)N[C@H](CCC(=O)OC)C(N)=O)[C@@H]1O [Example 4]"
testtarget = "E. coli (JC-2)"
parametermeasured = "Survival rate, E. coli"
uom = "%"
valuemeasured = 65

[[record]]
molecule = "CCCCCCCCCCCCCC(=O)O[C@H](CCCCCCCCCCC)CC(=O)OC[C@H]1O[C@@H](S)[C@H](NC(C)=O)[C@@H](O[C@H](C)C(=O)N[C@@H](C)C(=O)N[C@H](CCC(=O)OC)C(N)=O)[C@@H]1O [Example 8]"
testtarget = "E. coli (JC-2)"
parametermeasured = "Survival rate, E. coli"
uom = "%"
valuemeasured = 35


Fill in: Survival rate, E. coli of CCCCCCCCCCCC(=O)O[C@H](CCCCCCCCCCC)CC(=O)OC[C@H]1OC(O)[C@H](NC(C)=O)[C@@H](O[C@H](C)C(=O)N[C@@H](C)C(=O)N[C@H](CCC(=O)OC)C(N)=O)[C@@H]1O (stereo partly drawn) [Example 1] is ___
50

For CCCCCCCCCCCCCCCC(=O)O[C@H](CCCCCCCCCCC)CC(=O)OC[C@H]1OC(O)[C@H](NC(C)=O)[C@@H](O[C@H](C)C(=O)N[C@@H](C)C(=O)N[C@H](CCC(=O)OC)C(N)=O)[C@@H]1O (stereo partly drawn) [Example 3] then?
45

For CCCCCCCCCCCCCCCC(=O)O[C@H](CCCCCCCCCCC)CC(=O)OC[C@H]1O[C@@H](S)[C@H](NC(C)=O)[C@@H](O[C@H](C)C(=O)N[C@@H](C)C(=O)N[C@H](CCC(=O)OC)C(N)=O)[C@@H]1O [Example 9] then?
40
